assay: Pharmacokinetic determination in rats; type: in vivo; settings: rat; male SD rats, plasma, oral administration (PO) 5 mg/kg

{"Structure": "[2H]C([2H])([2H])n1cc(C(=O)N2CC3(C2)CN(c2cncc(-c4ccc5nc(OC)ccc5c4)c2)C3)cn1", "AUC(0-t) / ng·h/mL": 21600}
{"Structure": "COc1ccc2cc(-c3cncc(N4CC5(CN(C(=O)c6cnn(C)c6)C5)C4)n3)ccc2n1", "AUC(0-t) / ng·h/mL": 16700}
{"Structure": "Cn1cc(C(=O)N2CCC3(CC2)CN(c2cncc(-c4ccc5c(c4)sc(=O)n5C)c2)C3)cn1", "AUC(0-t) / ng·h/mL": 24700}
{"Structure": "COc1ccc2cc(-c3cncc(N4CC5(CN(C(=O)c6cnn(C)c6)C5)C4)c3)ccc2n1", "AUC(0-t) / ng·h/mL": 33600}
{"Structure": "Cn1cc(C(=O)N2CC(Oc3cncc(-c4ccc5c(c4)sc(=O)n5C)c3)C2)cn1", "AUC(0-t) / ng·h/mL": 18200}
{"Structure": "CCC(=O)N[C@@H]1CCCc2c(-c3ccc4c(c3)COC(=O)N4C)cncc21", "AUC(0-t) / ng·h/mL": 27600}
{"Structure": "CCC(=O)N[C@@H]1CCCc2c(-c3ccc4c(cnn4C)c3)cncc21", "AUC(0-t) / ng·h/mL": 21800}
{"Structure": "COc1ccc2cc(-c3cncc(N4CC5(CN(C(=O)c6ccc(C)nc6)C5)C4)n3)ccc2n1", "AUC(0-t) / ng·h/mL": 20100}
{"Structure": "Cn1cc(C(=O)N2CC3(C2)CN(c2cncc(-c4ccc5c(c4)sc(=O)n5C)c2)C3)cn1", "AUC(0-t) / ng·h/mL": 31400}

----------
Target: human CYP11B2 (Homo sapiens)
Construct: The main elements of an expression plasmid include ORF of human CYP11B1 or human CYP11B2; expressed in transfected cells
Sequence (P19099 25-503): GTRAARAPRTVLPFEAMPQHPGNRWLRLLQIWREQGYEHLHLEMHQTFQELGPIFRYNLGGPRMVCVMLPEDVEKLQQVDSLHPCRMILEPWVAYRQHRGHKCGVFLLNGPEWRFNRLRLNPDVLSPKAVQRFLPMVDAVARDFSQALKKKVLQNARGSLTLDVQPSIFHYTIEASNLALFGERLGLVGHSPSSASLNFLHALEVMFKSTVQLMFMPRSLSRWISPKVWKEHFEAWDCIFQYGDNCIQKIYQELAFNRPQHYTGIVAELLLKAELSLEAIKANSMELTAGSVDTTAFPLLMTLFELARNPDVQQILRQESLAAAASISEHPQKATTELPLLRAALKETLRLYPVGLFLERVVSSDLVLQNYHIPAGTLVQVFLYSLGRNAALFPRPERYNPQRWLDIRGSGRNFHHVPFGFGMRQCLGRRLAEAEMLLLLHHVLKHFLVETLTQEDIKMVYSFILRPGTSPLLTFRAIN
Experiment: G-402 cell enzyme experiment, CYP11B2 (aldosterone product, HTRF)
Assay type: cell-based
Conditions: G-402 cells stably expressing human CYP11B2, 1 µM 11-deoxycorticosterone, 16 h
Field 'label' (enum: 1 / -1). Set to 1 when EC50 is strictly under 10 nM; else -1.

{"Compound": "[2H]C([2H])([2H])n1cc(C(=O)N2CC3(C2)CN(c2cncc(-c4ccc5nc(OC)ccc5c4)c2)C3)cn1", "Discrete Label": -1}
{"Compound": "COc1ccc2cc(-c3cncc(N4CC5(CC(NC(=O)c6cnn(C)c6)C5)C4)c3)ccc2n1", "Discrete Label": 1}
{"Compound": "COc1ccc2cc(-c3cncc(N4CC5(CCN(C(=O)c6cnn(C)c6)CC5)C4)c3)ccc2n1", "Discrete Label": -1}
{"Compound": "COc1ccc2cc(-c3cncc(N4CCN(C(=O)c5cnn(C)c5)CC4)c3)ccc2n1", "Discrete Label": 1}
{"Compound": "CCC(=O)N[C@@H]1CCCc2c(-c3ccc4c(c3)sc(=O)n4C)cncc21", "Discrete Label": -1}
{"Compound": "COc1ccc2cc(-c3cncc(N4CCC(NC(=O)c5cnn(C)c5)CC4)c3)ccc2n1", "Discrete Label": 1}
{"Compound": "COc1ccc2cc(-c3cncc(N4CCC(NC(=O)c5cnn(C)c5)CC4)n3)ccc2n1", "Discrete Label": 1}
{"Compound": "COc1ccc2cc(-c3cncc(NC4CN(C(=O)c5cnn(C6CC6)c5)C4)c3)ccc2n1", "Discrete Label": -1}
{"Compound": "Cn1c(=O)ccc2cc(-c3cncc(C4=CCN(S(=O)(=O)C5CC5)CC4)c3)ccc21", "Discrete Label": -1}
{"Compound": "COc1ccc2cc(-c3cncc(N4CC5(CN(C(=O)c6cnn(C)c6)C5)C4)c3)ccc2n1", "Discrete Label": 1}
{"Compound": "COc1ccc2cc(-c3cncc4c3CCCC4NC(C)=O)ccc2n1 (stereo not shown)", "Discrete Label": -1}
{"Compound": "COc1ccc2cc(-c3cncc(N4CC5(CCN(C(=O)c6cnn(C)c6)C5)C4)c3)ccc2n1", "Discrete Label": -1}
{"Compound": "COc1ccc2cc(-c3cncc(N4CC5(CN(C(=O)c6cnn(C)c6)C5)C4)n3)ccc2n1", "Discrete Label": -1}
{"Compound": "Cn1cc(C(=O)N2CCC3(CC2)CN(c2cncc(-c4ccc5c(c4)sc(=O)n5C)c2)C3)cn1", "Discrete Label": -1}
{"Compound": "COc1ccc2cc(-c3cncc(N4CC5(CN(C(C)=O)C5)C4)c3)ccc2n1", "Discrete Label": -1}
{"Compound": "Cn1cc(C(=O)N2CC(Oc3cncc(-c4ccc5c(c4)sc(=O)n5C)c3)C2)cn1", "Discrete Label": -1}

----------
experiment: Pharmacokinetic determination in rats; format: in vivo; conditions: rat; male SD rats, plasma, oral administration (PO) 5 mg/kg
Here, each record is paired with measured Cmax data.
Result Type: Cmax (ng/mL)

{"Structure": "Cn1cc(C(=O)N2CC3(C2)CN(c2cncc(-c4ccc5c(c4)sc(=O)n5C)c2)C3)cn1", "Unit Annotation": "ng/mL", "Measured": 4910}
{"Structure": "COc1ccc2cc(-c3cncc(N4CC5(CN(C(=O)c6ccc(C)nc6)C5)C4)n3)ccc2n1", "Unit Annotation": "ng/mL", "Measured": 3950}
{"Structure": "Cn1cc(C(=O)N2CCC3(CC2)CN(c2cncc(-c4ccc5c(c4)sc(=O)n5C)c2)C3)cn1", "Unit Annotation": "ng/mL", "Measured": 2700}
{"Structure": "COc1ccc2cc(-c3cncc(N4CC5(CN(C(=O)c6cnn(C)c6)C5)C4)c3)ccc2n1", "Unit Annotation": "ng/mL", "Measured": 5720}
{"Structure": "Cn1cc(C(=O)N2CC(Oc3cncc(-c4ccc5c(c4)sc(=O)n5C)c3)C2)cn1", "Unit Annotation": "ng/mL", "Measured": 2560}

----------
Here, each record is paired with measured Cmax data.
assay: Pharmacokinetic determination in rats; type: in vivo; settings: rat; male SD rats, plasma, oral administration (PO) 5 mg/kg
Result Type: Cmax (ng/mL)

{"Structure": "CCC(=O)N[C@@H]1CCCc2c(-c3ccc4c(c3)COC(=O)N4C)cncc21", "Result Type": "Cmax", "Measured": 6330}
{"Structure": "COc1ccc2cc(-c3cncc(N4CC5(CN(C(=O)c6cnn(C)c6)C5)C4)n3)ccc2n1", "Result Type": "Cmax", "Measured": 3160}
{"Structure": "[2H]C([2H])([2H])n1cc(C(=O)N2CC3(C2)CN(c2cncc(-c4ccc5nc(OC)ccc5c4)c2)C3)cn1", "Result Type": "Cmax", "Measured": 3210}
{"Structure": "CCC(=O)N[C@@H]1CCCc2c(-c3ccc4c(cnn4C)c3)cncc21", "Result Type": "Cmax", "Measured": 4900}

----------
experiment: Pharmacokinetic determination in rats; type: in vivo; details: rat, in vivo; male SD rats, plasma, oral administration (PO) 5 mg/kg

{"Molecule": "Cn1c(=O)sc2cc(-c3cncc(N4CC5(CN(C(=O)C6(C#N)CC6)C5)C4)c3)ccc21 [Example 105]", "Cmax / ng/mL": 6040}

----------
experiment: Pharmacokinetic determination in rats; assay type: in vivo; details: rat, in vivo; male SD rats, plasma, oral administration (PO) 5 mg/kg; read-out: MRT0-∞
Result Type: MRT inf (h)

{"Structure": "Cn1c(=O)sc2cc(-c3cncc(N4CC5(CN(C(=O)C6(C#N)CC6)C5)C4)c3)ccc21", "Measured": 9.6}

----------
Assay: Pharmacokinetic determination in rats
Type: in vivo
Conditions: rat, in vivo; male SD rats, plasma, oral administration (PO) 5 mg/kg
Protocol: SD rats were used as test animals to study the pharmacokinetic behavior of the compounds of the present invention in rats (plasma) after oral administration. 3 SD rats per group, male. Formulation of drug for oral administration: 0.5% CMC-Na (1% Tween 80) 5 g of sodium carboxymethyl cellulose (CMC-Na, viscosity: 800-1200 Cps) was weighed and dissolved in 1000 mL of purified water, and 10 g of Tween 80 was added. These materials were uniformly mixed to form a clear solution. […]

{"Compound": "Cn1c(=O)sc2cc(-c3cncc(N4CC5(CN(C(=O)C6(C#N)CC6)C5)C4)c3)ccc21 [Example 105]", "AUC(0-t) [ng·h/mL]": 60400}
